Tested on: wheat germ agglutinin (Triticum aestivum), Alexa647-labelled
EXPERIMENTAL_DETAILS: wheat germ agglutinin binders on compound microarrays, profiling panel, artefact control for SMM control-protein annotation, biochemical, small-molecule microarray, 635/667 nm fluorescence (AID 1140);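 note: score merges 667 nm feature emission with signal to noise over triplicate slides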
EXPERIMENTAL_CONDITIONS: WGA-A647 binding, 635 nm fluorescence, higher = more signal
Reported composite z-score is given for each of the following compounds.
Please reply with the value in numeric form only.

Some solved entries appear below for comparison.
[N-]=[N+]=NCc1ccccc1C[C@@]1(C(=O)O)N=C(c2ccc(OCCCO)cc2)O[C@@H]1c1ccccc1N=[N+]=[N-] 0.415
CCCC=C(CCC)[C@@H](NS(=O)(=O)c1cccc(C(F)(F)F)c1)c1ccc(C(=O)OC)cc1 0.295
CC(=O)NCCCC[C@@H]1NC(=O)[C@H]2C[C@@H](C(=O)NCCCCCCN(C)C)[C@@H](c3cccc(OCCO)c3)N2C1=O 0.797

Alright, here's another compound for you.
I'd like to know its composite z-score. The compound in question is CC(C)(C)OC(=O)CC[C@]1(C(=O)NCCN2CCOCC2)N=C(c2ccc(OCCCO)cc2)O[C@H]1c1ccccc1CN=[N+]=[N-]
1.31

====

System: Sonic hedgehog protein (Shh)
EXPERIMENTAL_DETAILS: small-molecule binders of Shh protein, primary screen, biochemical, small-molecule microarray, 635/667 nm fluorescence (AID 1151);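 note: Shh protein binding to compounds spotted on small-molecule microarray slides; score combines spot fluorescence intensity with signal-to-noise across triplicate slides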
EXPERIMENTAL_CONDITIONS: small-molecule microarray binding, 635 nm fluorescence; higher = more signal
Reported composite z-score is given for each of the following compounds.
Please reply with the value in numeric form only.

COMPOUND	composite z-score
O=C1OCCC/C=C\[C@H]2OC34C=CCN(CCN5CCOCC5)C(=O)[C@H]3N(CCCCCO)C(=O)[C@@H]4C12 (stereo partly drawn)	0.392
Cc1ccc(S[C@]2(C(=O)NC(C)C)CC(=O)N(Cc3cc(C(F)(F)F)cc(C(F)(F)F)c3)[C@@H]2c2ccc(CO)cc2I)cc1	-0.0174
COc1cc2c(cc1OC)CN(C(=O)[C@@H]1[C@H]3C(=O)O[C@H](c4ccccc4)[C@H](c4ccccc4)N3[C@H](c3ccccc3OCCO)[C@@]13C(=O)Nc1ccccc13)CC2	0.554
O=C1C[C@@](C(=O)NCCN2CCOCC2)(c2ccc([N+](=O)[O-])cc2)[C@@H](c2ccc(CO)cc2)N1C1CCCCC1	0.452
C=CCC(OC(C)=O)[C@@H]1[C@@H](N(Cc2ccc(-c3cccc(C(F)(F)F)c3)o2)C(=O)Cc2ccc(F)cc2)c2cc(OCCCO)ccc2N1C(=O)c1ccc(-c2ccccc2)cc1 (stereo partly drawn)	0.475

I'd like to know its composite z-score. The compound in question is COc1ccc(-c2ccccc2[C@@H]2N[C@H](C(=O)O)CC[C@H]2C)cc1
0.289

Likewise for CCOC(=O)C1=CC[C@@H](c2ccc(-c3ccc(OCc4ccccc4)cc3)c(OC)c2)N(S(=O)(=O)c2ccc(C)cc2)[C@H]1c1ccccc1 ?
1.15

====

TARGET: Torsin-1A (Homo sapiens) (UniProt O14656)
Sequence (O14656 whole entry, looked up): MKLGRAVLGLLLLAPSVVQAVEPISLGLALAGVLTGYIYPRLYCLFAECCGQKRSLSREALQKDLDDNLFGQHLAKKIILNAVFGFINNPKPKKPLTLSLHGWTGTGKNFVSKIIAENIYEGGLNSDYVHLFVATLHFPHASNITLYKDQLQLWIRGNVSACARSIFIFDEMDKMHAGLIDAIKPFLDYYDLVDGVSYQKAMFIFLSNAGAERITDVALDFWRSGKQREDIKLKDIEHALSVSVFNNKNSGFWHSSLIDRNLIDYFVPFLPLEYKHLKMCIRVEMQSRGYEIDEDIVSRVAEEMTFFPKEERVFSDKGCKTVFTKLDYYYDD
EXPERIMENTAL_DETAILS: small-molecule binders of mutant TOR1A in lysate, primary screen, cell lysate, small-molecule microarray, COS7 lysate, 635/667 nm fluorescence (AID 1150);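 note: score pools 667 nm emission and signal to noise measuring lysate protein binding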
EXPERIMENTAL_CONDITIONS: COS7 hTOR1A mutant lysate, 635 nm fluorescence, higher = more signal
EXPERIMENTAL_READOUT: composite z-score
Please reply with the value in numeric form only.

Some solved entries appear below for comparison.
COMPOUND	DATA_VALUE
C[N+](C)(C)CCCCNC(=O)[C@@H]1C[C@@H]2C(=O)N3CCC[C@H]3C(=O)N2[C@@H]1c1cccc(OCCO)c1	1.03
CCN1C(C)=C(C(=O)OC)[C@@H](c2ccccc2)N2C(=O)[C@](O)(C(=O)OC)[C@@H](c3ccccc3)C(C(=O)c3ccccc3)=C12	0.269
CC(C)N1CC=CC23O[C@@H]4/C=C\CCCOC(=O)C4[C@H]2C(=O)N(CCO)[C@@H]3C1=O (some centres not stated)	-0.582
CO[C@H]1COC(=O)CC=C[C@H](C)[C@@H](OC)COC(=O)[C@H](Cc2ccccc2)NC(=O)CC=C[C@@H]1C	0.593
C=C[C@H](OC)[C@@H](OC(=O)Nc1ccc(SC)cc1)c1ccc(O)c(F)c1	0.23

I'd like to know its composite z-score. The compound in question is O=C(NCc1ccccc1)c1ccc(Br)cc1[N+](=O)[O-]
-0.232

Likewise for [N-]=[N+]=NCc1ccccc1C[C@@]1(C(=O)O)N=C(c2ccc(OCCCO)cc2)O[C@@H]1c1ccccc1N=[N+]=[N-] ?
0.0245

Likewise for Cc1cc(C)c(C(O)C2C=CC3C(=O)N(C)C(=O)C3N2N2CCCCC2)c(C)c1 (configuration not stated) ?
0.251

Likewise for Cc1ccc(S[C@]2(C(=O)NCCCN(C)C)CC(=O)N(Cc3ccccc3)[C@@H]2c2ccc(CO)cc2I)cc1 ?
-1.08

Likewise for CO[C@@H]1COC(=O)[C@@H]2CCCN2C(=O)CC=C[C@@H](C)[C@H](OC)COC(=O)[C@@H]2CCCN2C(=O)CC=C[C@H]1C ?
0.306

Likewise for C#CCCCON=C1C[C@@H](O)[C@@H](O)[C@@H]2[C@@H]3C(=O)N(Cc4ccc5c(c4)OCO5)C(=O)[C@@H]3CC[C@H]12 ?
0.267
